system: HepG2 cells; experiment: Glucose uptake Glo Assay, Example 821; format: cell-based; settings: concentration tested 50 uM
property label: % increase in Glucose Uptake

Examples from the recorded data:
CCOP1(=O)OCC(C)(C)[C@H](C(=O)NCCC(=O)NCCSC(=O)CCC(=O)O)O1 (stereo partly shown) [Compound 61]    ≥10%
C[C@@H](O)CC(=O)SCCNC(=O)CCNC(=O)[C@@H]1OC(=O)OCC1(C)C [Compound 485]    ≥10%
C/C=C/C(=O)SCCNC(=O)CCNC(=O)[C@@H]1OP(=O)(O)OCC1(C)C [Compound 36]    ≥30%
C[C@@H](O)CC(=O)SCCNC(=O)CCNC(=O)[C@@H]1OP(=O)(OCc2ccccc2)OCC1(C)C (stereo partly shown) [Compound 864]    ≥20%
C[C@@H](O)CC(=O)SCCNC(=O)CCNC(=O)[C@@H]1OP(=O)(O)OCC1(C)C [Compound 39]    ≥10%
CC1(C)COP(=O)(OCc2ccccc2)O[C@H]1C(=O)NCCC(=O)NCCS (stereo partly shown) [Compound 862]    ≥10%

Input COC(=O)CCC(=O)SCCNC(=O)CCNC(=O)[C@@H]1OC(C)(C)OCC1(C)C [Compound 852] . Output % increase in Glucose Uptake: ≥20%

Input CC1(C)COP(=O)(O)O[C@H]1C(=O)NCCC(=O)NCCSC(=O)/C=C/C(=O)O [Compound 20] . Output % increase in Glucose Uptake: ≥30%

* * *

test system: Peripheral blood mononuclear cells co-cultured with B-cells (BT system); assay: BioMAP BT system, Example 829; type: cell-based, human; conditions: BT system; 10 uM
property label: % increase in sIL-6

Examples from the recorded data:
COC(=O)CCC(=O)SCCNC(=O)CCNC(=O)[C@@H]1OC(C)(CC(=O)OC)OCC1(C)C (stereo partly shown)    ≥20%
CCOC(=O)CCC(=O)SCCNC(=O)CCNC(=O)[C@@H]1OP(=O)(N[C@@H](C)C(=O)OCC)OCC1(C)C (stereo partly shown)    ≥20%
C/C=C/C(=O)SCCNC(=O)CCNC(=O)[C@@H]1OP(=O)(O)OCC1(C)C    ≥10%

Please examine the following record next.
Input CCOP1(=O)OCC(C)(C)[C@H](C(=O)NCCC(=O)NCCSC(=O)CCC(=O)O)O1 (stereo partly shown) . Output % increase in sIL-6: ≥10%

* * *

system: HepG2 cells; experiment: Glucose uptake Glo Assay, Example 821; format: cell-based; settings: concentration tested 50 uM
Source text: […]
% increase in Glucose Uptake overview

Assay HepG2 cells, sample COC(=O)CCC(=O)SCCNC(=O)CCNC(=O)[C@@H]1OC(=O)OCC1(C)C , % increase in Glucose Uptake read: ≥20%

Assay HepG2 cells, sample COC(=O)CCC(=O)SCCNC(=O)CCNC(=O)[C@@H]1OP(=O)(OCc2ccccc2)OCC1(C)C (some centres unmarked) , % increase in Glucose Uptake read: ≥10%

Assay HepG2 cells, sample CCC(=O)SCCNC(=O)CCNC(=O)[C@@H]1OC(C)(C)OCC1(C)C , % increase in Glucose Uptake read: ≥20%

Assay HepG2 cells, sample CCCCCCC(=O)SCCNC(=O)CCNC(=O)[C@@H]1OC(C)(C)OCC1(C)C , % increase in Glucose Uptake read: ≥30%

Assay HepG2 cells, sample CC(=O)CC(=O)SCCNC(=O)CCNC(=O)[C@@H]1OC(C)(C)OCC1(C)C , % increase in Glucose Uptake read: ≥10%
